- test_target: PDE1B (Homo sapiens, UniProt Q01064)
- Sequence (Q01064 whole entry): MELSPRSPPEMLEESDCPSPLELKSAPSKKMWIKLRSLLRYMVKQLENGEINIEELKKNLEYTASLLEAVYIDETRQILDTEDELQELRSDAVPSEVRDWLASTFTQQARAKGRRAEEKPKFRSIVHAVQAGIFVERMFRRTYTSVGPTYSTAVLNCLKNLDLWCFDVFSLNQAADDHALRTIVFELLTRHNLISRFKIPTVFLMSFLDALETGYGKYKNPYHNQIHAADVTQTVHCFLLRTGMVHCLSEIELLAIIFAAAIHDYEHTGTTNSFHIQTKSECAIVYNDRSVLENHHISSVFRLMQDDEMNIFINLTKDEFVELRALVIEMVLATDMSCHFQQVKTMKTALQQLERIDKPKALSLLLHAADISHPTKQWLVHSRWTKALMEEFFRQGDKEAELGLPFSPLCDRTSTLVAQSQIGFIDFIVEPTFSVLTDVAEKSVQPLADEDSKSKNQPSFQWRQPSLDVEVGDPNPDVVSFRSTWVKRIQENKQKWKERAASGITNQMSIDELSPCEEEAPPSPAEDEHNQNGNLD
- assay_comment: In vitro HTRF PDE1 inhibition assay (PDE1B)
- Format: biochemical
- condition_label: in vitro PDE1B HTRF Assay; read-out: IC50
value_type: IC50

Req: Could you tell me which IC50 is on file for CC(C)c1ncc2c(=O)n(C)c(NC(C)(C)c3ccccn3)nn12 [Example 162] ?
Resp: 1000 to 10000 nM

Req: Could you tell me which IC50 is on file for CCn1c(OCC2CCCC2)nn2c(C3CCOCC3)ncc2c1=O [Example 88] ?
Resp: < 1000 nM

Req: Could you tell me which IC50 is on file for CCn1c(OCCc2ccccn2)nn2c(C3CCOCC3)ncc2c1=O [Example 64] ?
Resp: < 1000 nM

Req: Could you tell me which IC50 is on file for Cn1c(NCc2ccc(Cl)cc2)nn2c(C3CCOCC3)ncc2c1=O [Example 180] ?
Resp: < 1000 nM

Req: Could you tell me which IC50 is on file for CC(C)c1ncc2c(=O)n(C)c(CN3Cc4ccccc4C3=O)nn12 [Example 232] ?
Resp: 1000 to 10000 nM

Req: Could you tell me which IC50 is on file for CC(C)c1ncc2c(=O)n(C)c(NCc3cccnc3)nn12 [Example 152] ?
Resp: < 1000 nM

Req: Could you tell me which IC50 is on file for COc1nn2c(C(C)C)ncc2c(=O)n1Cc1ccccn1 [Example 262] ?
Resp: < 1000 nM

Req: Could you tell me which IC50 is on file for CO[C@H]1CCN(c2nn3c(C4CCOCC4)ncc3c(=O)n2C)C1 [Example 187] ?
Resp: < 1000 nM

Req: Could you tell me which IC50 is on file for CC(C)c1ncc2c(=O)[nH]c(N3CCCC3c3ccc(Cl)cc3)nn12 (stereo not drawn) [Example 134] ?
Resp: < 1000 nM

* * *

- test_target: PDE1C (Homo sapiens, UniProt Q14123)
- assay_comment: In vitro SPA PDE1 inhibition assay (PDE1C)
- Type: biochemical
- condition_label: [3H]-cGMP 100 nM
Mark T for IC50 under 0.2 µM, F if at or over.

Req: Strictly below 0.2 µM: is that where IC50 of `CCOC[C@H]1CC[C@H](COc2nn3c(C4CCOCC4)ncc3c(=O)n2C)CC1` sits?
Resp: F

Req: Strictly below 0.2 µM: is that where IC50 of `CC(C)c1ncc2c(=O)n(C)c(NCc3ccc(Cl)cn3)nn12` sits?
Resp: F

Req: Strictly below 0.2 µM: is that where IC50 of `CCn1c(OCC2CCC(F)(F)CC2)nn2c(C3CCOCC3)ncc2c1=O` sits?
Resp: F

Req: Strictly below 0.2 µM: is that where IC50 of `COc1nn2c(C3CCOCC3)ncc2c(=O)n1C[C@H]1CC[C@@H](OC)CC1` sits?
Resp: T

Req: Strictly below 0.2 µM: is that where IC50 of `Cn1c(OCc2ccc(F)cc2)nn2c(C3CCOCC3)nc(F)c2c1=O` sits?
Resp: F

Req: Strictly below 0.2 µM: is that where IC50 of `COc1nn2c(C3CCOCC3)ncc2c(=O)n1CC1CCC(F)(F)CC1` sits?
Resp: T

Req: Strictly below 0.2 µM: is that where IC50 of `COc1nn2c(C3CCOCC3)ncc2c(=O)n1Cc1ccc(Cl)cc1` sits?
Resp: T

Req: Strictly below 0.2 µM: is that where IC50 of `Cc1nn2c(C3CCOCC3)ncc2c(=O)n1Cc1ccccc1` sits?
Resp: T

* * *

- test_target: PDE1B (Homo sapiens, UniProt Q01064)
- assay_comment: In vitro SPA PDE1 inhibition assay (PDE1B)
- Type: biochemical
- condition_label: [3H]-cGMP 100 nM
value_type: IC50 (µM)
Only the number, expressed in µM, is required.

Req: Please state recorded IC50 (tested on PDE1B (Homo sapiens, UniProt Q01064)) of `CCOC[C@H]1CC[C@H](COc2nn3c(C4CCOCC4)ncc3c(=O)n2C)CC1`
Resp: 0.023

Req: Please state recorded IC50 (tested on PDE1B (Homo sapiens, UniProt Q01064)) of `CCn1c(OCC2CCC(F)(F)CC2)nn2c(C3CCOCC3)ncc2c1=O`
Resp: 0.088

Req: Please state recorded IC50 (tested on PDE1B (Homo sapiens, UniProt Q01064)) of `CC(C)c1ncc2c(=O)n(C)c(NCc3ccc(Cl)cn3)nn12`
Resp: 0.051

Req: Please state recorded IC50 (tested on PDE1B (Homo sapiens, UniProt Q01064)) of `COc1nn2c(C3CCOCC3)ncc2c(=O)n1CC1CCC(F)(F)CC1`
Resp: 0.033

Req: Please state recorded IC50 (tested on PDE1B (Homo sapiens, UniProt Q01064)) of `Cn1c(OC[C@H]2CC[C@H](C(F)(F)F)CC2)nn2c(C3CCOCC3)ncc2c1=O`
Resp: 0.036

Req: Please state recorded IC50 (tested on PDE1B (Homo sapiens, UniProt Q01064)) of `CCn1c(OC[C@H]2CC[C@H](OC)CC2)nn2c(C3CCOCC3)ncc2c1=O`
Resp: 0.028

Req: Please state recorded IC50 (tested on PDE1B (Homo sapiens, UniProt Q01064)) of `CNc1nn2c(C3CCOCC3)ncc2c(=O)n1Cc1ccccc1`
Resp: 0.109

Req: Please state recorded IC50 (tested on PDE1B (Homo sapiens, UniProt Q01064)) of `COc1nn2c(C3CCOCC3)ncc2c(=O)n1C[C@H]1CC[C@@H](OC)CC1`
Resp: 0.096

Req: Please state recorded IC50 (tested on PDE1B (Homo sapiens, UniProt Q01064)) of `Cn1c(OCc2ccc(F)cc2)nn2c(C3CCOCC3)nc(F)c2c1=O`
Resp: 0.084

* * *

- test_target: UniProtKB Q14123
- assay_comment: In vitro HTRF PDE1 inhibition assay (PDE1C)
- Format: biochemical
- condition_label: 100 nM cyclic GMP
Assignment: determine reported IC50 for the given compounds.

Req: Could you tell me which IC50 is on file for COC[C@H]1CC[C@@H](Oc2nn3c(C4CCOCC4)ncc3c(=O)n2C)CC1 [Example 318] ?
Resp: < 1 µM

Req: Could you tell me which IC50 is on file for CCO[C@H]1CC[C@H](Oc2nn3c(C4CCOCC4)ncc3c(=O)n2CC)CC1 [Example 315] ?
Resp: < 1 µM

Req: Could you tell me which IC50 is on file for CCn1c(OCC2CCC(F)(F)CC2)nn2c(C3CCOCC3)ncc2c1=O [Example 1] ?
Resp: < 1 µM

Req: Could you tell me which IC50 is on file for Cn1c(OC2CCC(C)(C)CC2)nn2c(C3CCOCC3)ncc2c1=O [Example 302] ?
Resp: < 1 µM

Req: Could you tell me which IC50 is on file for CCn1c(O[C@H]2CC[C@@H](OC)CC2)nn2c(C3CCOCC3)ncc2c1=O [Example 313] ?
Resp: < 1 µM

Req: Could you tell me which IC50 is on file for COc1nn2c(C3CCOCC3)ncc2c(=O)n1Cc1ccc(Cl)cc1 [Example 109] ?
Resp: < 1 µM

Req: Could you tell me which IC50 is on file for COc1nn2c(C3CCOCC3)ncc2c(=O)n1C[C@H]1CC[C@@H](OC)CC1 [Example 101] ?
Resp: < 1 µM

Req: Could you tell me which IC50 is on file for CCOC[C@H]1CC[C@H](COc2nn3c(C4CCOCC4)ncc3c(=O)n2C)CC1 [Example 288] ?
Resp: < 1 µM

Req: Could you tell me which IC50 is on file for CO[C@H]1CC[C@@H](Oc2nn3c(C4CCOCC4)ncc3c(=O)n2C)CC1 [Example 312] ?
Resp: < 1 µM

* * *

- test_target: PDE1B (Homo sapiens)
- assay_comment: In vitro SPA PDE1 inhibition assay (PDE1B)
- Format: biochemical
- condition_label: [3H]-cGMP 100 nM
Assignment: determine reported IC50 for the given compounds.
Only the number, expressed in µM, is required.

Req: Please state recorded IC50 (tested on PDE1B (Homo sapiens)) of `CCn1c(O[C@H]2CC[C@H](COC)CC2)nn2c(C3CCOCC3)ncc2c1=O`
Resp: 0.027

Req: Please state recorded IC50 (tested on PDE1B (Homo sapiens)) of `CCc1nn2c(C3CCOCC3)ncc2c(=O)n1CC1CCC(F)(F)CC1`
Resp: 0.079

Req: Please state recorded IC50 (tested on PDE1B (Homo sapiens)) of `CCO[C@H]1CC[C@H](COc2nn3c(C4CCOCC4)ncc3c(=O)n2C)CC1`
Resp: 0.064

Req: Please state recorded IC50 (tested on PDE1B (Homo sapiens)) of `COc1nn2c(C3CCOCC3)ncc2c(=O)n1Cc1ccc(Cl)cc1`
Resp: 0.028

Req: Please state recorded IC50 (tested on PDE1B (Homo sapiens)) of `Cc1nn2c(C3CCOCC3)ncc2c(=O)n1Cc1ccccc1`
Resp: 0.145
